Recorded values, source patent US8552028B2.

# study.target: 5-HT2A receptor (Homo sapiens)
# Sequence (P28223 whole entry): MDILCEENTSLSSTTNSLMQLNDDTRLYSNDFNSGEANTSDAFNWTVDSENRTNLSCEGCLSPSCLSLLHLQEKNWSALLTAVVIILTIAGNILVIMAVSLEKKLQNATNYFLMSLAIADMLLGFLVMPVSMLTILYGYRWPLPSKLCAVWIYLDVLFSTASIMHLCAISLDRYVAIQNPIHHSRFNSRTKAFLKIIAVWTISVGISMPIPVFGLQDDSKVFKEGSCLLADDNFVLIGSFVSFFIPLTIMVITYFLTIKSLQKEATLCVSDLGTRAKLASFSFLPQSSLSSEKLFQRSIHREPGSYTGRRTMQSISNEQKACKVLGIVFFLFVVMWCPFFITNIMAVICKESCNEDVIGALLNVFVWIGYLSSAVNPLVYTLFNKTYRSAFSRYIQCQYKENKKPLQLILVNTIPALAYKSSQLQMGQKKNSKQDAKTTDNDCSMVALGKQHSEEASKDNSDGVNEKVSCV
recorded.endpoint: Ki
Answer with the number, then the unit.

compound: COc1ccc(-c2c(O)c(OC)cc3c2CN(CCc2ccccc2F)CC3)c(OC)c1 [Compound 116]
test.value: 3.47 nM

# evaluate next
Inquiry: Any idea what its Ki is? The compound is COc1cccc(CCc2ccccc2OCC(CN(C)C)OC(=O)CCC(=O)O)c1 (centres unmarked) [sarpogrelate, reference compound]
Reply text: 8.39 nM
